tested on: nitrosoamine-induced pancreatic cancer; test: in vivo hemorrhagic necrosis effect; set-up: species or system hamsters; key: four scales of G4, G3, G2 and G1; four scales of G4, G3, G2 and G1; four scales of G4, G3, G2 and G1; four scales of G4, G3, G2 and G1; conditions: intensity of hemorrhagic necrosis at 24 hours following i.v. administration, and pathological study
assay_endpoint: Hemorrhagic necrosis effect

compound: C=CC1=C(C)C2=Cc3c(C(C)OCCO)c(C)c4[n]3[Ga][n]3c(c(C)c(CCC(=O)NC(CC(=O)O)C(=O)O)c3=CC3=NC(=C4)C(C)=C3CCC(=O)NC(CC(=O)O)C(=O)O)=CC1=N2 (centres unmarked)
assay_endpoint: Hemorrhagic necrosis effect
value: G1
--
compound: CC1=C(CCC(=O)NC(CC(=O)O)C(=O)O)C2=NC1=Cc1c(C)c(C(C)OCCC(C)CCCC(C)C)c3[n]1[Ga][n]1c(c(C)c(CCC(=O)NC(CC(=O)O)C(=O)O)c1=C2)=CC1=NC(=C3)C(C)=C1C(C)OCCC(C)CCCC(C)C (centres unmarked)
assay_endpoint: Hemorrhagic necrosis effect
value: G2
--
compound: COC(C)C1=C(C)C2=Cc3c(C(C)OC)c(C)c4[n]3[Ga][n]3c(c(C)c(CCC(=O)NC(CC(=O)O)C(=O)O)c3=CC3=NC(=C4)C(C)=C3CCC(=O)NC(CC(=O)O)C(=O)O)=CC1=N2 (centres unmarked)
assay_endpoint: Hemorrhagic necrosis effect
value: G1
--
compound: CCCCCCCCCCOC(C)C1=C(C)C2=Cc3c(C(C)OCCCCCCCCCC)c(C)c4[n]3[Mn][n]3c(c(C)c(CCC(=O)NCC(=O)NC(CC(=O)O)C(=O)O)c3=CC3=NC(=C4)C(C)=C3CCC(=O)NCC(=O)NC(CC(=O)O)C(=O)O)=CC1=N2 (centres unmarked)
assay_endpoint: Hemorrhagic necrosis effect
value: G2
--
compound: CCCCCCCCCCCCOC(C)C1=C(C)C2=Cc3c(C(C)OCCCCCCCCCCCC)c(C)c4[n]3[Fe][n]3c(c(C)c(CCC(=O)NC(CC(=O)O)C(=O)O)c3=CC3=NC(=C4)C(C)=C3CCC(=O)NC(CC(=O)O)C(=O)O)=CC1=N2 (centres unmarked)
assay_endpoint: Hemorrhagic necrosis effect
value: G3
--
compound: CC(C)=CCC/C(C)=C/COC(C)C1=C(C)C2=Cc3c(C(C)OC/C=C(\C)CCC=C(C)C)c(C)c4[n]3[Mn][n]3c(c(C)c(CCC(=O)NC(CC(=O)O)C(=O)O)c3=CC3=NC(=C4)C(C)=C3CCC(=O)NC(CC(=O)O)C(=O)O)=CC1=N2 (centres unmarked)
assay_endpoint: Hemorrhagic necrosis effect
value: G3
--
compound: CC1=C(CCC(=O)NC(CC(=O)O)C(=O)O)c2cc3[nH]c(cc4nc(cc5[nH]c(cc1n2)c(C(C)OCC1CCCO1)c5C)C(C(C)OCC1CCCO1)=C4C)c(C)c3CCC(=O)NC(CC(=O)O)C(=O)O.[Mn] (centres unmarked)
assay_endpoint: Hemorrhagic necrosis effect
value: G2
--
compound: CCCCCCCCOC(C)C1=C(C)C2=Cc3c(C(C)OCCCCCCCC)c(C)c4[n]3[Fe][n]3c(c(C)c(CCC(=O)NC(CC(=O)O)C(=O)O)c3=CC3=NC(=C4)C(C)=C3CCC(=O)NC(CC(=O)O)C(=O)O)=CC1=N2 (centres unmarked)
assay_endpoint: Hemorrhagic necrosis effect
value: G3

---

assay: luminescence properties of porphyrin derivatives (Table 1); format: physicochemical

smiles_input: C=Cc1c(C)c2cc3[nH]c(cc4nc(cc5nc(cc1[nH]2)C(C)=C5CCC(=O)OC)C(CCC(=O)OC)=C4C)c(C)c3C=C
Absorbance / nm: 633

smiles_input: C=CC1=C(C)c2cc3[n-]c(cc4nc(cc5[n-]c(cc1n2)c(C)c5CCC(=O)OC)C(CCC(=O)OC)=C4C)c(C)c3C=C.[Co+2]
Absorbance / nm: 570

smiles_input: C=CC1=C(C)c2cc3[n-]c(cc4nc(cc5[n-]c(cc1n2)c(C)c5CCC(=O)OC)C(CCC(=O)OC)=C4C)c(C)c3C=C.[Mg+2]
Absorbance / nm: 590

smiles_input: C=CC1=C(C)c2cc3[n-]c(cc4nc(cc5[n-]c(cc1n2)c(C)c5CCC(=O)OC)C(CCC(=O)OC)=C4C)c(C)c3C=C.[Cu+2]
Absorbance / nm: 572

Origin of measurements: patent EP0350948B1
